Could you please report measured pIC50 for the items listed next?
Molecular target: human orexin-1 receptor (Homo sapiens (Human), UniProt O43613)
Sequence (O43613 whole entry): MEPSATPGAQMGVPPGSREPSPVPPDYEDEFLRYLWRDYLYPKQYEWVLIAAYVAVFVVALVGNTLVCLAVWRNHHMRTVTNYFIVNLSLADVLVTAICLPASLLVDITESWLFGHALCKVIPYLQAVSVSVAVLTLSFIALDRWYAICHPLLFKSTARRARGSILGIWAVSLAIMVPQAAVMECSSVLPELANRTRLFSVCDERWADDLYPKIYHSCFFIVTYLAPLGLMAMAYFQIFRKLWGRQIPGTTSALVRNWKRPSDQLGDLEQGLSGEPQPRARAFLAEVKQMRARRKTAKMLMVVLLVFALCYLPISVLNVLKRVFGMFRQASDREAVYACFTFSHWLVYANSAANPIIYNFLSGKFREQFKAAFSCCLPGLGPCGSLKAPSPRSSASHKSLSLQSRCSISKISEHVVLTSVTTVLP
Assay: In vitro assay: intracellular calcium measurements (FLIPR), antagonistic activity
Type: cell-based
Details: CHO cells, 3 nM orexin-A, compound incubation time of 10 min; marked values are geometric means of n = 2-6; read-out: IC50 OX1
Kindly note that pIC50 refers to -log10 of the concentration in mol/L and answer with the value alone.

Note down pIC50 recorded for COc1cccc(OC)c1C1CCCC(=O)N1Cc1ccc(OCC(F)(F)F)cc1 (stereo not shown) [Example 246] 6.18

Note down pIC50 recorded for COc1cccc(OC)c1C1CCCC(=O)N1Cc1ccc(F)cc1 (stereo not shown) [Example 157] 5.83

Note down pIC50 recorded for COc1cccc(OC)c1C1CCCC(=O)N1Cc1ccc(OCC2CC2)cc1 (stereo not shown) [Example 208] 5.95

Note down pIC50 recorded for COc1cccc(F)c1[C@@H]1C[C@H](O)C(=O)N1Cc1ccc(OC(F)(F)F)cc1 (racemic) [Example 265] 6.14

Note down pIC50 recorded for COc1ccc(CN2C(=O)CCCC2c2c(OC)cccc2OC)cc1 (stereo not shown) [Example 159] 6.16

Note down pIC50 recorded for CCOc1ccccc1C1CCC(=O)N1Cc1ccc(OC(F)(F)F)cc1 (stereo not shown) [Example 195] 6.09

Note down pIC50 recorded for COc1cccc(OC)c1C1CCC(=O)N1Cc1cnc(OC(F)F)c(Cl)c1 (stereo not shown) [Example 112] 6.19

Note down pIC50 recorded for COc1cccc(OC)c1C1CCCC(=O)N1Cc1ccc(Oc2ccccc2)nc1 (stereo not shown) [Example 192] 6.44

Note down pIC50 recorded for COc1cccc(OC(C)C)c1C1CCCC(=O)N1Cc1ccc(OC(F)(F)F)cc1 (stereo not shown) [Example 230] 6.44

Note down pIC50 recorded for COc1cccc(OC)c1C1CCCC(=O)N1Cc1ccc2c(c1)OC(F)(F)O2 (stereo not shown) [Example 182] 6.55

Note down pIC50 recorded for COc1cccc(OC)c1C1CCCC(=O)N1Cc1ccccc1Oc1ccccc1 (stereo not shown) [Example 191] 6.43

Note down pIC50 recorded for COc1cccc(OC)c1C1CCC(=O)N1Cc1ccc2ccccc2c1 (stereo not shown) [Example 111] 6.77

Note down pIC50 recorded for COc1cccc(OC)c1C1CCCC(=O)N1Cc1ccc(-n2cccc2)cc1 (stereo not shown) [Example 169] 5.80

The reported numbers originate from patent US9242970B2.
